Test: Solubility of the compound at pH 6.8
Type: physicochemical
Settings: buffer

STRUCTURE: C[C@@]1(c2nc(NC(=O)c3ncc(C(F)(F)F)cc3Cl)ccc2F)CO[C@@](C)(C(F)(F)F)C(N)=N1
UNIT OF MEASURE: µg/mL
solubility: 13

###

Assay: Drug concentration in Sprague-Dawley rat blood at 10 umol/kg, po measured after 4 hrs by LC-MS/MS analysis
Assay type: ADME, organism-based
Details: dose 10 µmol/kg, read-out: Drug uptake

STRUCTURE: C[C@@]1(c2nc(NC(=O)c3ncc(C(F)(F)F)cc3Cl)ccc2F)CO[C@@](C)(C(F)(F)F)C(N)=N1
concentration at 4 h (nM): 440

###

Test: Drug concentration in Sprague-Dawley rat brain at 10 umol/kg, po measured after 4 hrs by LC-MS/MS analysis
Type: ADME, organism-based
Conditions: dose 10 µmol/kg, read-out: Drug uptake

STRUCTURE: C[C@@]1(c2nc(NC(=O)c3ncc(C(F)(F)F)cc3Cl)ccc2F)CO[C@@](C)(C(F)(F)F)C(N)=N1
concentration at 4 h [nM]: 850

###

Assay: Oral bioavailability in Sprague-Dawley rat at 6 mg/kg
Assay type: ADME, organism-based
Settings: in vivo

STRUCTURE: C[C@@]1(c2nc(NC(=O)c3ncc(C(F)(F)F)cc3Cl)ccc2F)CO[C@@](C)(C(F)(F)F)C(N)=N1
UNIT OF MEASURE: %
bioavailability: 60

###

Experiment: Clearance in Beagle dog at 6 mg/kg, po
Assay type: ADME, organism-based, Canis lupus familiaris
Conditions: in vivo
VALUE TYPE: CL/F

STRUCTURE: C[C@@]1(c2nc(NC(=O)c3ncc(C(F)(F)F)cc3Cl)ccc2F)CO[C@@](C)(C(F)(F)F)C(N)=N1
ENDPOINT VALUE: 2 mL/min/kg

###

Assay: Clearance in rat liver microsomes incubated up to 80 mins by LC-MS/MS analysis
Type: ADME, Microsome
Conditions: 1.333 h
VALUE TYPE: CLH (µL/min/mg)

STRUCTURE: COCCOc1cnc(C(=O)Nc2ccc(F)c([C@]3(C)CO[C@@](C)(C(F)(F)F)C(N)=N3)n2)c(N)n1
VALUE TYPE: CLH
ENDPOINT VALUE: 204
//
STRUCTURE: C[C@@]1(c2nc(NC(=O)c3ncc(C(F)(F)F)cc3Cl)ccc2F)CO[C@@](C)(C(F)(F)F)C(N)=N1
VALUE TYPE: CLH
ENDPOINT VALUE: 37

###

Test: Hepatic clearance in Beagle dog at 0.3 mg/kg, po
Type: ADME, organism-based, Canis lupus familiaris
Settings: in vivo
VALUE TYPE: CLH (mL/min/kg)

STRUCTURE: C[C@@]1(c2nc(NC(=O)c3ncc(C(F)(F)F)cc3Cl)ccc2F)CO[C@@](C)(C(F)(F)F)C(N)=N1
VALUE TYPE: CLH
ENDPOINT VALUE: 3.3

###

Assay: Drug concentration in Sprague-Dawley rat blood at 30 umol/kg, po measured after 4 hrs by LC-MS/MS analysis
Type: ADME, organism-based
Settings: dose 30 µmol/kg, read-out: Drug uptake

STRUCTURE: C[C@@]1(c2nc(NC(=O)c3ncc(C(F)(F)F)cc3Cl)ccc2F)CO[C@@](C)(C(F)(F)F)C(N)=N1
concentration at 4 h: 1710 nM
